Here, each record is paired with measured self-cleavage data.
B1: LINE1-mini (parent)
chain: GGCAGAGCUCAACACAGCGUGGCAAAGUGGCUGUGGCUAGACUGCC

Variants of: B1
Assay: self-cleavage, relative activity (ratio to wild type); higher = more cleavage; in vitro, sequencing; the parent is a self-cleaving ribozyme
measuredEndpoint: self-cleavage

C15A U43C    0.04
A11G G44A    0.03
A14G G35C    0.05
A26U U43A    0.08
A16U C42G    0.07
A6C G21U    0.44
C3U G22C    0.48
A26C A39G    0.05
G17C C18G    0.07
A16U A41G    0.07
C37G C42G    0.02
U34C A41G    0.07
G5C U32A    0.06
U32G U43C    0.07
C23A G35C    0.14
G1U G33C    0.03
G7A C42G    0.05
U20C U28A    0.93
U34C C46U    0.12
G1A U34C    0.14
A39U C42G    0.03
G22U A41C    0.04
C3G G19U    0.56
G7U C18U    0.14
A14G A16U    0.06
A12U G35U    0.13
G19U A41G    0.2
A24G A41U    0.67
G1A U20C    0.33
U9C U28G    0.04
A4U U28G    0.17
G29U A41C    0.05
G1U U28C    0.24
G5U C15A    0.05
C42U C45A    0.14
G1C C31A    0.02
C15U C23A    2.82
G17C G35U    0.03
G7C U43G    0.05
A6C C18A    0.2
G19U A24C    0.73
C45G C46A    0.21
C13U G27U    0.17
C23U U43A    0.07
U28C G33A    0.14
G2U U43C    0.06
A4C G21A    0.42
G5C C13G    0.13
A6C C8A    0.26
G19A G44U    0.51
A12C C13G    0.04
G27U U32G    0.16
G17C C46G    0.54
G30U U34G    0.09
G5U A6C    0.16
U32C U38G    0.01
G5A A25U    0.12
C8U A41C    0.16
C13A C42G    0.08
C18G A39U    0.47
G19C A25G    0.26
C10G A39U    0.16
C18U    1.21
G2U A16G    0.05
A14U C18U    0.08
C13U C42G    0.08
G5C C45G    0.05
G35U C42U    0.11
A16C U32G    0.4
A12G C15U    0.03
U9C G40C    0.03
C31G G33A    0.05
C8U A16U    0.13
C8A G33A    0.16
G7U C45U    0.12
G2U C15A    0.04
G5C U28G    0.02
C23A C46U    1.1
G2A G7C    0.39
A24G U32G    0.14
G2C C23U    0.16
G2C A41G    0.17
A16C C31U    0.03
C42U C45G    0.09
C3G C15U    0.25
C23U G35C    0.1
C15U U43G    0.44
C10G G19C    0.06
U9A U43C    0.14
U9A U38G    0.22
C13G C31G    0.05
